# target-or-system: EGFR del19/T790M/C797S (Homo sapiens, UniProt P00533, C797S/DEL746-750/T790M)
# Sequence (P00533 with tags, fused parts or gaps DEL746-750/T790M/C797S): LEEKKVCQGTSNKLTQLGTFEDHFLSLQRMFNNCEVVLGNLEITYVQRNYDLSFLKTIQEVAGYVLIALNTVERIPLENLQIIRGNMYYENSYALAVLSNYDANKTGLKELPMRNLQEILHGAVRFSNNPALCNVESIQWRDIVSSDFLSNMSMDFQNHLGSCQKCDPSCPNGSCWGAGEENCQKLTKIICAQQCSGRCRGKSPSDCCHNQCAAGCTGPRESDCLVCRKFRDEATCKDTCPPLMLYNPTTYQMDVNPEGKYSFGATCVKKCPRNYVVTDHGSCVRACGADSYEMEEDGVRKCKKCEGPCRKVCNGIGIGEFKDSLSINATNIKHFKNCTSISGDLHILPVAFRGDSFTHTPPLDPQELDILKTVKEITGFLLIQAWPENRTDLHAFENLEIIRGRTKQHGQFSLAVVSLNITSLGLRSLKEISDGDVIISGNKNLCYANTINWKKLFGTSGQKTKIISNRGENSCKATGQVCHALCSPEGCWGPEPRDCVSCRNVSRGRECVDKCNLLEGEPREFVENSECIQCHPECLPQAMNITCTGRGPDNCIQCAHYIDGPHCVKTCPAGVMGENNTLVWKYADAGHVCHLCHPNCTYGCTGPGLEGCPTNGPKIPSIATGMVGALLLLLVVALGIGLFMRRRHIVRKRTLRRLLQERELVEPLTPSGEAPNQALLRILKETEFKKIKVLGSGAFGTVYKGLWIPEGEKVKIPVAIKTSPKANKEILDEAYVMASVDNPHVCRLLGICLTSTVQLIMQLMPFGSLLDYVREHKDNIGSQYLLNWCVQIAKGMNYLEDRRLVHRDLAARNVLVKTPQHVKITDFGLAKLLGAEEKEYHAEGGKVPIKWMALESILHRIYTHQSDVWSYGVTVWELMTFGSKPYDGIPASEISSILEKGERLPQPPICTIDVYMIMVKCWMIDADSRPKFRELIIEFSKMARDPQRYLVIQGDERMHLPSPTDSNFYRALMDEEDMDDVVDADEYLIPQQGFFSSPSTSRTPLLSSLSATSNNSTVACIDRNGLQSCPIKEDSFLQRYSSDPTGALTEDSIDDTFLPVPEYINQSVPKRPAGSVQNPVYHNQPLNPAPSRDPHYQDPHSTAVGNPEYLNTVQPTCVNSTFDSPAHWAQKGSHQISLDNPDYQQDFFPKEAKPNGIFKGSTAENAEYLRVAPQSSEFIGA
# assay-summary: Biochemical EGFR kinase assay (Lance Ultra TR-FRET), triple mutant del19/T790M/C797S
# reported-conditions: Km ATP; read-out: IC50 del19/T790M/C797S (nM) Km ATP
Listed here: items and their measured IC50.

chemical-structure: CN(C)CCOc1cnc(-c2cnc(Nc3ccnc(-c4cnn(S(=O)(=O)C5CC5)c4)n3)cc2N[C@H]2CC[C@@H](CO)CC2)cn1
IC50 (nM): 0.1

chemical-structure: C[C@]1(O)CC[C@@H](Nc2cc(Nc3ccnc(-c4cnn(S(=O)(=O)C5CC5)c4)n3)ncc2-c2cnc(CO)cn2)CC1
IC50 (nM): 0.2

chemical-structure: C[C@]1(O)CC[C@@H](Nc2cc(Nc3ccnc(-c4cnn(S(=O)(=O)C5CC5)c4)n3)ncc2-c2ccc(F)cn2)CC1
IC50 (nM): 0.2

###

Listed here: items and their measured IC50.
# target-or-system: EGFR wildtype (Homo sapiens)
# Sequence (P00533 25-1210): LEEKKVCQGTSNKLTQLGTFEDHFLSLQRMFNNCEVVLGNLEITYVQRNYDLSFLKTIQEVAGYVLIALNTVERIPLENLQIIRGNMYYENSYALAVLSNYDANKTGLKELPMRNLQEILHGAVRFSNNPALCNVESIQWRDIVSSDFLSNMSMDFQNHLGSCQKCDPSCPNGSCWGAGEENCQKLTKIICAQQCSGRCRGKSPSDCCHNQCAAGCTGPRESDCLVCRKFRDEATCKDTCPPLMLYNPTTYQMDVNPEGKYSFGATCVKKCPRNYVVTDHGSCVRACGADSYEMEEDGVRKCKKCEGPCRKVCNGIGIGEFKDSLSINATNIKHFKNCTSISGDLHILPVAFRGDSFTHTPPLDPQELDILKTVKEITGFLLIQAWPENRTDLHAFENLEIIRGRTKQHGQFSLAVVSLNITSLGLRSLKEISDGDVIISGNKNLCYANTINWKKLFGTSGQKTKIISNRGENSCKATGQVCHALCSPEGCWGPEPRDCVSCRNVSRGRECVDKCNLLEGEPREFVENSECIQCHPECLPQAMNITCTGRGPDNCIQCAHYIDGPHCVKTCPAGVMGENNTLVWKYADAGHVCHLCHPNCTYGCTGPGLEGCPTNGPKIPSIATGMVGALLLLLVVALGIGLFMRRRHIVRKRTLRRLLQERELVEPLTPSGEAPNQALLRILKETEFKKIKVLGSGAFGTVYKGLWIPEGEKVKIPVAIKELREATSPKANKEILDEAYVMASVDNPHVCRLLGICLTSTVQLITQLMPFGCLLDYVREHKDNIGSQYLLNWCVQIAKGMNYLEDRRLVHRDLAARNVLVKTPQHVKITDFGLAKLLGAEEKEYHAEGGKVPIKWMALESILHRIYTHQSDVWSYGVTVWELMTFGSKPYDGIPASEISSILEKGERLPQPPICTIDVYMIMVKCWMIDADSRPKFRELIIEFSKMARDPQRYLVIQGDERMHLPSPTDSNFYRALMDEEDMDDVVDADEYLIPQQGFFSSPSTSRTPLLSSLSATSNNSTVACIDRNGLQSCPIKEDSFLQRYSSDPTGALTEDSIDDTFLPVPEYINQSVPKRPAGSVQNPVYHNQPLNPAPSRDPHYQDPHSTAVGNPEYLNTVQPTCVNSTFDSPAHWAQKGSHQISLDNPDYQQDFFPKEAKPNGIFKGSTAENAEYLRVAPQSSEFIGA
# assay-summary: Biochemical EGFR kinase assay (Lance Ultra TR-FRET), wildtype
# reported-conditions: IC50 WT (nM) 100 μM ATP, 100 μM ATP
measurement-name: IC50

molecule: C[C@]1(O)CC[C@@H](Nc2cc(Nc3ccnc(-c4cnn(S(=O)(=O)C5CC5)c4)n3)ncc2-c2cc(N3CCC(F)(F)CC3)ccn2)CC1 [Example 102]
result: > 10000 nM
--
molecule: CC(C)(O)c1ccc(-c2cnc(Nc3ccnc(-c4cnn(S(=O)(=O)C5CC5)c4)n3)cc2N[C@H]2CC[C@@H](C(C)(C)O)CC2)nn1 [Example 88]
result: > 10000 nM
--
molecule: C[C@]1(O)CC[C@@H](Nc2cc(Nc3ccnc(-c4cnn(S(=O)(=O)C5CC5)c4)n3)ncc2-c2cnc(N3CCC(F)(F)CC3)cn2)CC1 [Example 75]
result: > 10000 nM

###

# target-or-system: EGFR del19/C797S (Homo sapiens, UniProt P00533, C797S/DEL746-750)
# Sequence (P00533 with tags, fused parts or gaps DEL746-750/C797S): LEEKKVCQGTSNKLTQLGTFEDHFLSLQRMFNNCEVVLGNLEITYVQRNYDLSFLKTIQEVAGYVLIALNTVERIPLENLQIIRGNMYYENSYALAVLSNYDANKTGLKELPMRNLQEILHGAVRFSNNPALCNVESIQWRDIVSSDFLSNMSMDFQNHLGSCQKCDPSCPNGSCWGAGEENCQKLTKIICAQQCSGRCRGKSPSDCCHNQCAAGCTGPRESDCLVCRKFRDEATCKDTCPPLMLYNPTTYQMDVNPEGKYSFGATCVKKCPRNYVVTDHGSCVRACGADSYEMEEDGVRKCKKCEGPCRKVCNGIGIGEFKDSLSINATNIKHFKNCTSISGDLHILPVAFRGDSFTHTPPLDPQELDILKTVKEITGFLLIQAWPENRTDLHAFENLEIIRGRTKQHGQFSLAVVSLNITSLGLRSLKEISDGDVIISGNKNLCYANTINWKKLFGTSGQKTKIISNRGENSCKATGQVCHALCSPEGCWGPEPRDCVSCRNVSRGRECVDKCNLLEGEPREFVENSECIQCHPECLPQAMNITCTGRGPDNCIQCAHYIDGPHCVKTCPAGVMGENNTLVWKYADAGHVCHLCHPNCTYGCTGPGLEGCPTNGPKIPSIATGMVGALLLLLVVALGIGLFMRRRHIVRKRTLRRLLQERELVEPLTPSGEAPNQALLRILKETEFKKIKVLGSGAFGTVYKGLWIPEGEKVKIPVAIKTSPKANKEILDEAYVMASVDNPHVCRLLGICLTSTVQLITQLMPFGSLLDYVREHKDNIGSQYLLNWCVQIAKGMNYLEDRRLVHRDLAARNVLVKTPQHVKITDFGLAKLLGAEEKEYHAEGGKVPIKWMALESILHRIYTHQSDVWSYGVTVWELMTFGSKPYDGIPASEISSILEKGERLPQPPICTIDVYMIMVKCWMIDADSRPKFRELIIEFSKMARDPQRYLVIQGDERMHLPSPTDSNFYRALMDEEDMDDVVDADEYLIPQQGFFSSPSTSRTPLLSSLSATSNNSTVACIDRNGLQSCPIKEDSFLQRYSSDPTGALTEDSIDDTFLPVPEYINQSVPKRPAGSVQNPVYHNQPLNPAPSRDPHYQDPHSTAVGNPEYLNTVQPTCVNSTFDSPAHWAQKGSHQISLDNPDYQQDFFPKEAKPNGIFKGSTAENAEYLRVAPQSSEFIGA
# assay-summary: Biochemical EGFR kinase assay (Lance Ultra TR-FRET), double mutant del19/C797S
# reported-conditions: IC50 del19/C797S, 100 μM ATP
pIC50: −log10 of the molar value.
Tick true (1) if pIC50 is 8 or greater. Tick false (0) if pIC50 is less than 8.

molecule: CS(=O)(=O)c1ccc(-c2cnc(Nc3ccnc(-c4cnn(S(=O)(=O)C5CC5)c4)n3)cc2N[C@H]2CC[C@@H](CO)CC2)nc1
target-or-system: EGFR del19/C797S (Homo sapiens, UniProt P00533, C797S/DEL746-750)
class-name: true (1)
//
molecule: O=C(c1ccc(-c2cnc(Nc3ccnc(-c4cnn(S(=O)(=O)C5CC5)c4)n3)cc2N[C@H]2CC[C@@H](CO)CC2)nc1)N1CCOCC1
target-or-system: EGFR del19/C797S (Homo sapiens, UniProt P00533, C797S/DEL746-750)
class-name: true (1)
//
molecule: CC(C)(O)C1CCC(Nc2cc(Nc3ccnc(-c4cnn(S(=O)(=O)C5CC5)c4)n3)ncc2-c2ccc(C(O)C(F)(F)F)cn2)CC1 (stereo not drawn)
target-or-system: EGFR del19/C797S (Homo sapiens, UniProt P00533, C797S/DEL746-750)
class-name: false (0)
//
molecule: C[C@]1(O)CC[C@@H](Nc2cc(Nc3ccnc(-c4cnn(S(=O)(=O)C5CC5)c4)n3)ncc2-c2ccc(S(=O)(=O)N3CCOCC3)cn2)CC1
target-or-system: EGFR del19/C797S (Homo sapiens, UniProt P00533, C797S/DEL746-750)
class-name: true (1)

###

# target-or-system: EGFR L858R/C797S (Homo sapiens, UniProt P00533, C797S/L858R)
# Sequence (P00533 25-1210 C797S/L858R): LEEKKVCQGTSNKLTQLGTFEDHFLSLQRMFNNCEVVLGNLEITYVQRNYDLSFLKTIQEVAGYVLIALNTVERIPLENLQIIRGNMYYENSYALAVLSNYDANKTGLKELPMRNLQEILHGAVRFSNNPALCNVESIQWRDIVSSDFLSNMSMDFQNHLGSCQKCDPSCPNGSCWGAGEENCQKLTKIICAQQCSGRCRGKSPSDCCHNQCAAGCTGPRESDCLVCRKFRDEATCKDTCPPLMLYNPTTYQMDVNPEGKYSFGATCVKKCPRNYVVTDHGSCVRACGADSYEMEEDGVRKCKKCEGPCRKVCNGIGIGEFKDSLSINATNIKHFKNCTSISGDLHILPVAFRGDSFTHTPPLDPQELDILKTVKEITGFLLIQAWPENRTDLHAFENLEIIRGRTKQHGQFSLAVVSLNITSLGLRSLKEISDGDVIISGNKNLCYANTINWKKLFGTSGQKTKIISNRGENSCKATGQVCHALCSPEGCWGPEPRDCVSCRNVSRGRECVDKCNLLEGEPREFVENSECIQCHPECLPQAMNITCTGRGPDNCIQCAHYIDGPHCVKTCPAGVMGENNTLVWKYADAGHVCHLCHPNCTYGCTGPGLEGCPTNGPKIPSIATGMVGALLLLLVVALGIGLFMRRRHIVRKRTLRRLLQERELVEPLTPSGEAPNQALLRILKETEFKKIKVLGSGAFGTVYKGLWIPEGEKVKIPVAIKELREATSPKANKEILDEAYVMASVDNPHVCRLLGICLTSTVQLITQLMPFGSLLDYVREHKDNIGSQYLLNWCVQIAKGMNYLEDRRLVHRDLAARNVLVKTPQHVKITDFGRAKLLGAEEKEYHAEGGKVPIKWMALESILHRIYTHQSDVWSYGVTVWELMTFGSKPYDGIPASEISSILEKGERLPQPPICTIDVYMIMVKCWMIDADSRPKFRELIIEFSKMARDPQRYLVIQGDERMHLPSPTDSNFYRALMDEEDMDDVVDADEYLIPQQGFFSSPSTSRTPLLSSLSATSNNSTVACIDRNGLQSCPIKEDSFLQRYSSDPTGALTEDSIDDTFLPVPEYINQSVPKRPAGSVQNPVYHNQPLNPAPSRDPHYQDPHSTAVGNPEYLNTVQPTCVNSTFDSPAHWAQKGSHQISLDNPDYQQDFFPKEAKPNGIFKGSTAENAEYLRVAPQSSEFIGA
# assay-summary: Biochemical EGFR kinase assay (Lance Ultra TR-FRET), double mutant L858R/C797S
# reported-conditions: IC50 L858R/C797S, 100 μM ATP
pIC50: −log10 of the molar value.

chemical-structure: CC1CCN(S(=O)(=O)c2ccc(-c3cnc(Nc4ccnc(-c5cnn(S(=O)(=O)C6CC6)c5)n4)cc3N[C@H]3CC[C@@H](C(C)(C)O)CC3)nc2)CC1
lt-gt-eq: =
pIC50: 5.71
--
chemical-structure: CC(C)(O)[C@H]1CC[C@@H](Nc2cc(Nc3ccnc(-c4cnn(S(=O)(=O)C5CC5)c4)n3)ncc2-c2ccc(OC(F)(F)F)cn2)CC1
lt-gt-eq: <
pIC50: 5.00
--
chemical-structure: O=S(=O)(C1CC1)n1cc(-c2nccc(Nc3cc(N[C@H]4CC[C@@H](CO)CC4)c(-c4cc(NC5CC(F)(F)C5)ccn4)cn3)n2)cn1
lt-gt-eq: =
pIC50: 8.16

###

# target-or-system: EGFR del19/T790M/C797S (Homo sapiens, UniProt P00533, C797S/DEL746-750/T790M)
# assay-summary: Biochemical EGFR kinase assay (Lance Ultra TR-FRET), triple mutant del19/T790M/C797S
# reported-conditions: IC50 del19/T790M/C797S, 100 μM ATP
pIC50: −log10 of the molar value.
Listed here: items and their measured pIC50.
measurement-name: pIC50

molecule: CC(C)(O)C1CCC(Nc2cc(Nc3ccnc(-c4cnn(S(=O)(=O)C5CC5)c4)n3)ncc2-c2ccc(C(O)C(F)(F)F)cn2)CC1 (stereo not drawn)
result: 8.36
//
molecule: C[C@]1(O)CC[C@@H](Nc2cc(Nc3ccnc(-c4cnn(S(=O)(=O)C5CC5)c4)n3)ncc2-c2ccc(C(=O)N3CCOCC3)cn2)CC1
result: 10.00
//
molecule: O=S(=O)(C1CC1)n1cc(-c2nccc(Nc3cc(N[C@H]4CCC[C@H](CO)C4)c(-c4ccc(CC(F)(F)F)cn4)cn3)n2)cn1
result: 8.47
//
molecule: CN(C)C[C@H]1CC[C@@H](Nc2cc(Nc3ccnc(-c4cnn(S(=O)(=O)C5CC5)c4)n3)ncc2-c2ccc(S(C)(=O)=O)cn2)CC1
result: 10.00
//
molecule: CC(C)(O)c1ccc(-c2cnc(Nc3ccnc(-c4cnn(S(=O)(=O)C5CC5)c4)n3)cc2N[C@H]2CC[C@@](C)(O)CC2)nc1
result: 9.52
//
molecule: CC(C)(O)[C@H]1CC[C@@H](Nc2cc(Nc3ccnc(-c4cnn(S(=O)(=O)C5CC5)c4)n3)ncc2-c2ccc(CC(F)(F)F)cn2)CC1
result: 8.64
//
molecule: CC(C)(O)[C@H]1CC[C@@H](Nc2nccc(-c3cnc(Nc4ccnc(-c5cnn(S(=O)(=O)C6CC6)c5)n4)cc3N[C@H]3CC[C@@H](C(C)(C)O)CC3)n2)CC1
result: 8.52
//
molecule: CC(C)(O)C1CCC(Nc2cc(Nc3ccnc(-c4cnn(S(=O)(=O)C5CC5)c4)n3)ncc2-c2ccc(C(C)(O)C(F)(F)F)cn2)CC1 (stereo not drawn)
result: 8.20
//
molecule: C[C@]1(O)CC[C@@H](Nc2cc(Nc3ccnc(-c4cnn(S(=O)(=O)C5CC5)c4)n3)ncc2-c2cc(NCCN3CC(F)C3)ccn2)CC1
result: 9.70
//
molecule: CS(=O)(=O)c1ccc(-c2cnc(Nc3ccnc(-c4cnn(S(=O)(=O)C5CC5)c4)n3)cc2N[C@H]2CC[C@@H](NCCF)CC2)nc1
result: 10.00
//
molecule: CN(C)C[C@H]1CC[C@@H](Nc2cc(Nc3ccnc(-c4cnn(S(=O)(=O)C5CC5)c4)n3)ncc2-c2ccc(C(C)(C)O)cn2)CC1
result: 9.30
//
molecule: CN1CC(Oc2ccc(-c3cnc(Nc4ccnc(-c5cnn(S(=O)(=O)C6CC6)c5)n4)cc3N[C@H]3CC[C@@](C)(O)CC3)nc2)C1
result: 9.70
//
molecule: O=S(=O)(C1CC1)n1cc(-c2nccc(Nc3cc(N[C@H]4CC[C@@H](CCO)CC4)c(-c4ccc(CC(F)(F)F)cn4)cn3)n2)cn1
result: 8.46
//
molecule: CC(F)(F)c1ccc(-c2cnc(Nc3ccnc(-c4cnn(S(=O)(=O)C5CC5)c4)n3)cc2N[C@H]2CC[C@@H](CO)CC2)nc1
result: 8.36
//
molecule: C[C@]1(O)CC[C@@H](Nc2cc(Nc3ccnc(-c4cnn(S(=O)(=O)C5CC5)c4)n3)ncc2-c2cccc(F)n2)CC1
result: 9.22
//
molecule: C[C@]1(O)CC[C@@H](Nc2cc(Nc3ccnc(-c4cnn(S(=O)(=O)C5CC5)c4)n3)ncc2-c2ccc(C(F)(F)F)c(F)n2)CC1
result: 8.00
//
molecule: CC(C)(O)[C@H]1CC[C@@H](Nc2cc(Nc3ccnc(-c4cnn(S(=O)(=O)C5CC5)c4)n3)ncc2-c2ccc(OCCO)cn2)CC1
result: 8.80
//
molecule: C[C@]1(O)CC[C@@H](Nc2cc(Nc3ccnc(-c4cnn(S(=O)(=O)C5CC5)c4)n3)ncc2-c2cc(NCCCO)ccn2)CC1
result: 9.70
//
molecule: O=C(c1ccc(-c2cnc(Nc3ccnc(-c4cnn(S(=O)(=O)C5CC5)c4)n3)cc2N[C@H]2CC[C@@H](CO)CC2)nc1)N1CCOCC1
result: 9.70
//
molecule: O=S(=O)(C1CC1)n1cc(-c2nccc(Nc3cc(N[C@H]4CC[C@@H](CO)CC4)c(-c4cc(OCCN5CCOCC5)ccn4)cn3)n2)cn1
result: 9.00
//
molecule: CN(C)CCOc1ccc(-c2cnc(Nc3ccnc(-c4cnn(S(=O)(=O)C5CC5)c4)n3)cc2N[C@H]2CC[C@@H](CO)CC2)nc1
result: 9.70
//
molecule: CC1(O)CCC(Nc2cc(Nc3ccnc(-c4cnn(S(=O)(=O)C5CC5)c4)n3)ncc2-c2ccc(C(O)C(F)(F)F)cn2)CC1 (stereo not drawn)
result: 9.10
//
molecule: O=S(=O)(C1CC1)n1cc(-c2nccc(Nc3cc(N[C@H]4CC[C@@H](CO)CC4)c(-c4ccc(OCCO)cn4)cn3)n2)cn1
result: 9.05
//
molecule: C[C@]1(O)CC[C@@H](Nc2cc(Nc3ccnc(-c4cnn(S(=O)(=O)C5CC5)c4)n3)ncc2-c2ccc(OCCN3CCC3)cn2)CC1
result: 9.40
